Origin of the recorded values: ChEMBL document CHEMBL1240350

Test system: Streptococcus pneumoniae
Experiment: Antibacterial activity against macrolide-resistant Streptococcus pneumoniae 2686 harboring mutation in L4 ribosomal protein after 25 passages and 10 compound-free subculturing by retest method
Assay type: functional
quantity_kind: MIC (µg/mL)
Write the answer as a number in µg/mL, unit excluded.

Any idea what MIC was measured for CC[C@H]1OC(=O)[C@H](C)C(=O)[C@H](C)[C@@H](O[C@@H]2O[C@H](C)C[C@H](N(C)C)[C@H]2O)[C@](C)(OC)C[C@@H](C)C(=O)[C@H](C)[C@H]2N(CCCCn3cnc(-c4cccnc4)c3)C(=O)O[C@]12C [TELITHROMYCIN] ?
0.5

Any idea what MIC was measured for CC[C@H]1OC(=O)[C@H](C)[C@@H](O[C@H]2C[C@@](C)(OC)[C@@H](O)[C@H](C)O2)[C@H](C)[C@@H](O[C@@H]2O[C@H](C)C[C@H](N(C)C)[C@H]2O)[C@](C)(OC)C[C@@H](C)C(=O)[C@H](C)[C@@H](O)[C@]1(C)O [CLARITHROMYCIN] ?
16

Any idea what MIC was measured for CCC[C@@H]1C[C@@H](C(=O)N[C@@H]([C@H]2O[C@H](SC)[C@H](O)[C@@H](O)[C@H]2O)[C@H](C)Cl)N(C)C1 [CLINDAMYCIN] ?
0.03

* * *

System: Streptococcus pneumoniae
Experiment: Antibacterial activity against macrolide-resistant Streptococcus pneumoniae 3665 harboring mef(A) gene after 26 passages and 10 compound-free subculturing by retest method
Type: functional
quantity_kind: MIC (µg/mL)
Write the answer as a number in µg/mL, unit excluded.

Any idea what MIC was measured for CC[C@H]1OC(=O)[C@H](C)C(=O)[C@H](C)[C@@H](O[C@@H]2O[C@H](C)C[C@H](N(C)C)[C@H]2O)[C@](C)(OC)C[C@@H](C)C(=O)[C@H](C)[C@H]2N(CCCCn3cnc(-c4cccnc4)c3)C(=O)O[C@]12C ?
0.06

Any idea what MIC was measured for CC[C@H]1OC(=O)[C@H](C)[C@@H](O[C@H]2C[C@@](C)(OC)[C@@H](O)[C@H](C)O2)[C@H](C)[C@@H](O[C@@H]2O[C@H](C)C[C@H](N(C)C)[C@H]2O)[C@](C)(OC)C[C@@H](C)C(=O)[C@H](C)[C@@H](O)[C@]1(C)O ?
8

* * *

Tested on: Streptococcus pneumoniae
Assay: Antibacterial activity against macrolide-susceptible Streptococcus pneumoniae 1077 after 49 passages and 10 compound-free subculturing by retest method
Format: functional
quantity_kind: MIC (µg/mL)
Write the answer as a number in µg/mL, unit excluded.

Any idea what MIC was measured for CC[C@H]1OC(=O)[C@H](C)C(=O)[C@H](C)[C@@H](O[C@@H]2O[C@H](C)C[C@H](N(C)C)[C@H]2O)[C@](C)(OC)C[C@@H](C)C(=O)[C@H](C)[C@H]2N(CCCCn3cnc(-c4cccnc4)c3)C(=O)O[C@]12C ?
0.06

Any idea what MIC was measured for CCC[C@@H]1C[C@@H](C(=O)N[C@@H]([C@H]2O[C@H](SC)[C@H](O)[C@@H](O)[C@H]2O)[C@H](C)Cl)N(C)C1 ?
8

* * *

System: Streptococcus pyogenes
Test: Antibacterial activity against macrolide-resistant Streptococcus pyogenes 2011 harboring mef(A) gene after 50 passages following overnight incubation by agar dilution method
Consider the following compounds; for each one, report its MIC.
Write the answer as a number in µg/mL, unit excluded.

Any idea what MIC was measured for CC[C@H]1OC(=O)[C@H](C)[C@@H](O[C@H]2C[C@@](C)(OC)[C@@H](O)[C@H](C)O2)[C@H](C)[C@@H](O[C@@H]2O[C@H](C)C[C@H](N(C)C)[C@H]2O)[C@](C)(OC)C[C@@H](C)C(=O)[C@H](C)[C@@H](O)[C@]1(C)O ?
8

Any idea what MIC was measured for CCC[C@@H]1C[C@@H](C(=O)N[C@@H]([C@H]2O[C@H](SC)[C@H](O)[C@@H](O)[C@H]2O)[C@H](C)Cl)N(C)C1 ?
0.06

Any idea what MIC was measured for CC[C@H]1OC(=O)[C@H](C)C(=O)[C@H](C)[C@@H](O[C@@H]2O[C@H](C)C[C@H](N(C)C)[C@H]2O)[C@](C)(OC)C[C@@H](C)C(=O)[C@H](C)[C@H]2N(CCCCn3cnc(-c4cccnc4)c3)C(=O)O[C@]12C ?
1

Any idea what MIC was measured for CC[C@H]1OC(=O)[C@@](C)(F)C(=O)[C@H](C)[C@@H](O[C@@H]2O[C@H](C)C[C@H](N(C)C)[C@H]2O)[C@](C)(OC)C[C@@H](C)C(=O)[C@H](C)[C@H]2N(CCCCn3cc(-c4cccc(N)c4)nn3)C(=O)O[C@]12C ?
0.125

* * *

Tested on: Streptococcus pneumoniae
Experiment: Antibacterial activity against Streptococcus pneumoniae harboring mef(A) gene after overnight incubation by agar dilution method
Format: functional
Labelling field: enter label 1 if recorded MIC50 is less than 0.1 µg/mL. Enter label 0 if it equals or exceeds that cut-off.

Check if MIC50 falls below 0.1 µg/mL for CC[C@H]1OC(=O)[C@H](C)[C@@H](O[C@H]2C[C@@](C)(OC)[C@@H](O)[C@H](C)O2)[C@H](C)[C@@H](O[C@@H]2O[C@H](C)C[C@H](N(C)C)[C@H]2O)[C@](C)(O)C[C@@H](C)C(=O)[C@H](C)[C@@H](O)[C@]1(C)O [ERYTHROMYCIN] .
label 0

Check if MIC50 falls below 0.1 µg/mL for CCC[C@@H]1C[C@@H](C(=O)N[C@@H]([C@H]2O[C@H](SC)[C@H](O)[C@@H](O)[C@H]2O)[C@H](C)Cl)N(C)C1 [CLINDAMYCIN] .
label 1

Check if MIC50 falls below 0.1 µg/mL for CC[C@H]1OC(=O)[C@H](C)[C@@H](O[C@H]2C[C@@](C)(OC)[C@@H](O)[C@H](C)O2)[C@H](C)[C@@H](O[C@@H]2O[C@H](C)C[C@H](N(C)C)[C@H]2O)[C@](C)(O)C[C@@H](C)CN(C)[C@H](C)[C@@H](O)[C@]1(C)O [AZITHROMYCIN] .
label 0

Check if MIC50 falls below 0.1 µg/mL for CC[C@H]1OC(=O)[C@H](C)[C@@H](O[C@H]2C[C@@](C)(OC)[C@@H](O)[C@H](C)O2)[C@H](C)[C@@H](O[C@@H]2O[C@H](C)C[C@H](N(C)C)[C@H]2O)[C@](C)(OC)C[C@@H](C)C(=O)[C@H](C)[C@@H](O)[C@]1(C)O [CLARITHROMYCIN] .
label 0

Check if MIC50 falls below 0.1 µg/mL for C[C@H]1COc2c(N3CCN(C)CC3)c(F)cc3c(=O)c(C(=O)O)cn1c23.C[C@H]1COc2c(N3CCN(C)CC3)c(F)cc3c(=O)c(C(=O)O)cn1c23.O [LEVOFLOXACIN] .
label 0

Check if MIC50 falls below 0.1 µg/mL for CC1(C)S[C@@H]2[C@H](NC(=O)Cc3ccccc3)C(=O)N2[C@H]1C(=O)O [PENICILLIN G] .
label 0

Check if MIC50 falls below 0.1 µg/mL for CC[C@H]1OC(=O)[C@H](C)C(=O)[C@H](C)[C@@H](O[C@@H]2O[C@H](C)C[C@H](N(C)C)[C@H]2O)[C@](C)(OC)C[C@@H](C)C(=O)[C@H](C)[C@H]2N(CCCCn3cnc(-c4cccnc4)c3)C(=O)O[C@]12C [TELITHROMYCIN] .
label 0

Check if MIC50 falls below 0.1 µg/mL for CC[C@H]1OC(=O)[C@@](C)(F)C(=O)[C@H](C)[C@@H](O[C@@H]2O[C@H](C)C[C@H](N(C)C)[C@H]2O)[C@](C)(OC)C[C@@H](C)C(=O)[C@H](C)[C@H]2N(CCCCn3cc(-c4cccc(N)c4)nn3)C(=O)O[C@]12C [SOLITHROMYCIN] .
label 1

* * *

System: Streptococcus pyogenes
Experiment: Antibacterial activity against macrolide-resistant Streptococcus pyogenes harboring mef(A) gene after overnight incubation by agar dilution method
Type: functional
quantity_kind: MIC90 (µg/mL)
Write the answer as a number in µg/mL, unit excluded.

Any idea what MIC90 was measured for CC[C@H]1OC(=O)[C@H](C)C(=O)[C@H](C)[C@@H](O[C@@H]2O[C@H](C)C[C@H](N(C)C)[C@H]2O)[C@](C)(OC)C[C@@H](C)C(=O)[C@H](C)[C@H]2N(CCCCn3cnc(-c4cccnc4)c3)C(=O)O[C@]12C [TELITHROMYCIN] ?
1

Any idea what MIC90 was measured for C[C@H]1COc2c(N3CCN(C)CC3)c(F)cc3c(=O)c(C(=O)O)cn1c23.C[C@H]1COc2c(N3CCN(C)CC3)c(F)cc3c(=O)c(C(=O)O)cn1c23.O [LEVOFLOXACIN] ?
1

Any idea what MIC90 was measured for CC[C@H]1OC(=O)[C@H](C)[C@@H](O[C@H]2C[C@@](C)(OC)[C@@H](O)[C@H](C)O2)[C@H](C)[C@@H](O[C@@H]2O[C@H](C)C[C@H](N(C)C)[C@H]2O)[C@](C)(O)C[C@@H](C)C(=O)[C@H](C)[C@@H](O)[C@]1(C)O [ERYTHROMYCIN] ?
32

Any idea what MIC90 was measured for CC[C@H]1OC(=O)[C@H](C)[C@@H](O[C@H]2C[C@@](C)(OC)[C@@H](O)[C@H](C)O2)[C@H](C)[C@@H](O[C@@H]2O[C@H](C)C[C@H](N(C)C)[C@H]2O)[C@](C)(OC)C[C@@H](C)C(=O)[C@H](C)[C@@H](O)[C@]1(C)O [CLARITHROMYCIN] ?
8

Any idea what MIC90 was measured for CCC[C@@H]1C[C@@H](C(=O)N[C@@H]([C@H]2O[C@H](SC)[C@H](O)[C@@H](O)[C@H]2O)[C@H](C)Cl)N(C)C1 [CLINDAMYCIN] ?
0.125

Any idea what MIC90 was measured for CC[C@H]1OC(=O)[C@H](C)[C@@H](O[C@H]2C[C@@](C)(OC)[C@@H](O)[C@H](C)O2)[C@H](C)[C@@H](O[C@@H]2O[C@H](C)C[C@H](N(C)C)[C@H]2O)[C@](C)(O)C[C@@H](C)CN(C)[C@H](C)[C@@H](O)[C@]1(C)O [AZITHROMYCIN] ?
8

Any idea what MIC90 was measured for CC1(C)S[C@@H]2[C@H](NC(=O)Cc3ccccc3)C(=O)N2[C@H]1C(=O)O [PENICILLIN G] ?
0.03
